Target: Cin5 (UniProt P40917)
Sequence: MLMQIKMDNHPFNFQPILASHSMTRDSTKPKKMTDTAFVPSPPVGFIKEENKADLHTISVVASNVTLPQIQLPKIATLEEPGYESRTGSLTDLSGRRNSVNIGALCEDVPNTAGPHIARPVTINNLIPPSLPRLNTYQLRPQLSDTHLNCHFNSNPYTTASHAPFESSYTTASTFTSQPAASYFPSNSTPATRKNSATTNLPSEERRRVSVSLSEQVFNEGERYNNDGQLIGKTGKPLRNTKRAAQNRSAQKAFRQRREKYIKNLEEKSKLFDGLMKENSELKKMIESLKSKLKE
Test: PBM E-score (8-mer binding enrichment) (E-score (-0.5 to 0.5)); higher = stronger / more preferred TF binding
Settings: protein concentration: 100 nM; construct: GST-full length
In all, about 33,000 sequences were measured (“E-score (-0.5 to 0.5)”: median about -0.0059, highest 2% from about 0.26 on). The sample as a whole holds a higher share of the highest values than the screen did.
Each entry below carries its recorded PBM E-score.
Readout kind: PBM E-score

[[record]]
sequence_content = "ATATTGTA"
measured_value = 0.151

[[record]]
sequence_content = "CTATTATA"
measured_value = 0.142

[[record]]
sequence_content = "ATATTATA"
measured_value = 0.265

[[record]]
sequence_content = "GTATTAGA"
measured_value = 0.234

[[record]]
sequence_content = "ACTGGGAT"
measured_value = 0.0399

[[record]]
sequence_content = "CTGCGAGA"
measured_value = -0.332

[[record]]
sequence_content = "GGCGTGAA"
measured_value = -0.183

[[record]]
sequence_content = "CGTATTAG"
measured_value = 0.109

